# ASSAY_TARGET: T1, FLAG-tagged p33 replication protein (Tomato bushy stunt virus, UniProt P15962 1-296)
# T1 construct: p33 replication protein of Tomato bushy stunt virus (tombusvirus); also called FLAG-p33; source: yeast (BY4741, cof1 ts and act1 ts strains), CUP1 promoter, in detergent-solubilized membrane fraction
# T1 sequence: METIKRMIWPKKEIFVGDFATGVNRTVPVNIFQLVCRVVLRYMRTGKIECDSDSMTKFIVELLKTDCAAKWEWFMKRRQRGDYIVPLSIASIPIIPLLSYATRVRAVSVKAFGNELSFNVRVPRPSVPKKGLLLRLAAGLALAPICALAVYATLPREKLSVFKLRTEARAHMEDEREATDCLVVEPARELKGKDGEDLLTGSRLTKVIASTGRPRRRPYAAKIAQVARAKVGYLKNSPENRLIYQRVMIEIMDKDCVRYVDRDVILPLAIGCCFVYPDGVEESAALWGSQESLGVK
# PROTOCOL_DESCRIPTION: co-IP; FLAG-affinity column purification of FLAG-p33 (co-expressed with FLAG-p92) from detergent-solubilized membrane fraction of yeast after cross-linking with 1% formaldehyde for 1 h on ice; co-purified His6-tagged host proteins detected by Western blot with anti-His antibody; yeast expressing His6-p33 as control; WT (BY4741), cof1-8 ts, cof1-22 ts, act1-121 ts, act1-132 ts, act1-105 ts and act1-112 ts yeasts at …
# ASSAY_CONTEXT: partners not purified
VALUE_KIND: co-purified with p33 from act1-132 yeast, percent of co-purification from WT yeast

BINDER: 6xHis-Vap27-1 (VAP protein, Scs2-like plant ortholog) (natural protein, UniProt Q8VZ95 1-256, looked up, Vap27-1, VAMP-associated protein, a plant ortholog of yeast Scs2p; also called Vap27-1 (Scs2-like); ER-localized Vap27-1; source: expressed in yeast, in detergent-solubilized membrane fraction) MSNIDLIGMSNRDLIGMSNSELLTVEPLDLQFPFELKKQISCSLYLTNKTDNNVAFKVKTTNPKKYCVRPNTGVVLPRSTCEVLVTMQAQKEAPSDMQCKDKFLLQGVIASPGVTAKEVTPEMFSKEAGHRVEETKLRVTYVAPPRPPSPVHEGSEEGSSPRASVSDNGHGSEFSFERFIVDNKAGHQENTSEARALITKLTEEKQSAIQLNNRLQRELDQLRRESKKSQSGGIPFMYVLLVGLIGLILGYIMKRT
READING: 218%
--
BINDER: Tdh2 GAPDH (Tdh2p) (enzyme, yeast (S. cerevisiae), UniProt P00358 1-332, looked up, Tdh2p, glyceraldehyde-3-phosphate dehydrogenase, cellular host factor in yeast; source: yeast (act1-132 ts and WT), co-purified with p33) MVRVAINGFGRIGRLVMRIALQRKNVEVVALNDPFISNDYSAYMFKYDSTHGRYAGEVSHDDKHIIVDGHKIATFQERDPANLPWASLNIDIAIDSTGVFKELDTAQKHIDAGAKKVVITAPSSTAPMFVMGVNEEKYTSDLKIVSNASCTTNCLAPLAKVINDAFGIEEGLMTTVHSMTATQKTVDGPSHKDWRGGRTASGNIIPSSTGAAKAVGKVLPELQGKLTGMAFRVPTVDVSVVDLTVKLNKETTYDEIKKVVKAAAEGKLKGVLGYTEDAVVSSDFLGDSNSSIFDAAAGIQLSPKFVKLVSWYDNEYGYSTRVVDLVEHVAKA
READING: 111%
--
BINDER: Rpn11 deubiquitinase (enzyme, yeast (S. cerevisiae), UniProt P43588 1-306, looked up, Rpn11 deubiquitinase, cellular host factor in yeast; source: yeast (act1-132 ts and WT), co-purified with p33) MERLQRLMMNSKVGSADTGRDDTKETVYISSIALLKMLKHGRAGVPMEVMGLMLGEFVDDYTVNVVDVFAMPQSGTGVSVEAVDDVFQAKMMDMLKQTGRDQMVVGWYHSHPGFGCWLSSVDVNTQKSFEQLNSRAVAVVVDPIQSVKGKVVIDAFRLIDTGALINNLEPRQTTSNTGLLNKANIQALIHGLNRHYYSLNIDYHKTAKETKMLMNLHKEQWQSGLKMYDYEEKEESNLAATKSMVKIAEQYSKRIEEEKELTEEELKTRYVGRQDPKKHLSETADETLENNIVSVLTAGVNSVAIK
READING: 161%
--
BINDER: Vps23 ESCRT I (Vps23p ESCRT factor) (natural protein, yeast (S. cerevisiae), UniProt P25604 1-385, looked up, Vps23p, ESCRT-I factor, cellular host factor in yeast; source: yeast (act1-132 ts and WT), co-purified with p33) MSANGKISVPEAVVNWLFKVIQPIYNDGRTTFHDSLALLDNFHSLRPRTRVFTHSDGTPQLLLSIYGTISTGEDGSSPHSIPVIMWVPSMYPVKPPFISINLENFDMNTISSSLPIQEYIDSNGWIALPILHCWDPAAMNLIMVVQELMSLLHEPPQDQAPSLPPKPNTQLQQEQNTPPLPPKPKSPHLKPPLPPPPPPQPASNALDLMDMDNTDISPTNHHEMLQNLQTVVNELYREDVDYVADKILTRQTVMQESIARFHEIIAIDKNHLRAVEQAIEQTMHSLNAQIDVLTANRAKVQQFSSTSHVDDEDVNSIAVAKTDGLNQLYNLVAQDYALTDTIECLSRMLHRGTIPLDTFVKQGRELARQQFLVRWHIQRITSPLS
READING: 108%

Below: the item to evaluate.
stdin: Could you tell me which co-purified with p33 from act1-132 yeast, percent of co-purification from WT yeast is on file for Cdc34 E2 enzyme (ubiquitin-conjugating enzyme) (enzyme, yeast (S. cerevisiae), UniProt P14682 1-295, looked up, Cdc34 ubiquitin-conjugating enzyme, cellular host factor in yeast; source: yeast (act1-132 ts and WT), co-purified with p33) MSSRKSTASSLLLRQYRELTDPKKAIPSFHIELEDDSNIFTWNIGVMVLNEDSIYHGGFFKAQMRFPEDFPFSPPQFRFTPAIYHPNVYRDGRLCISILHQSGDPMTDEPDAETWSPVQTVESVLISIVSLLEDPNINSPANVDAAVDYRKNPEQYKQRVKMEVERSKQDIPKGFIMPTSESAYISQSKLDEPESNKDMADNFWYDSDLDDDENGSVILQDDDYDDGNNHIPFEDDDVYNYNDNDDDDERIEFEDDDDDDDDSIDNDSVMDRKQPHKAEDESEDVEDVERVSKKI ?
stdout: 207%
